FYI, the data here is from PubChem BioAssay (NCI).

# System: UO-31 renal
# experiment.notes: NCI-60 one-dose screen, 48 h
# cond: 10 µM unless noted
About 83,000 compounds went through this panel and 20% of them were active in at least one assay; those are over-represented in the sample as a whole. Activity calls are given as the source filed them. How the source made its calls: active means growth percent below 10; inactive means the rest.
// classify into yes (active), no (inactive)

COc1cccc(NC(=O)c2sc3nc4c(cc3c2N)CN(Cc2ccccc2)CC4)c1 no
Cc1ccc(N)cc1F no
COc1cc2c(=O)n(CC3CCCCC3)c3c4cc[nH]c4ncc3c2cc1OC no
COc1cc(-c2cc(-c3nc4ccc(Cl)cc4[nH]3)[nH]n2)cc(OC)c1OC no

--- query ---
In this assay, the call recorded for "COc1ccc(/C=C/C(=O)c2c(O)c(C)c(O)c3c2OC2=CC(O)=C(C(C)=O)C(=O)[C@]23C)cc1" was what?
yes
